read-out: Interleukin-1 alpha (IL1a), IL1A (gene 3552); assay: BSK_KF3CT_IL1a: BioMAP Diversity Plus: KF3CT Assay for Interleukin-1 alpha (IL1a) Biomarker Activity (AID 2283070); conditions: primary human keratinocytes with fibroblasts; actives raise or lower the signal
Active and inactive are the calls of the source. The calls were made as follows: active = hit-call score of the fitted dose curve at least 0.9, where 1 is the maximum; inactive = score below 0.9.
Reported Endpoint: outcome

Smiles Notation: O=[N+]([O-])/N=C1\NCCN1Cc1ccc(Cl)nc1
Data Value: inactive
--
Smiles Notation: C[C@H]1[C@H](c2ccc(Cl)cc2)SC(=O)N1C(=O)NC1CCCCC1
Data Value: inactive
--
Smiles Notation: O=C(O)CCCOc1ccc(Cl)cc1Cl
Data Value: inactive
